- System under test: Stimulator of interferon genes protein (Homo sapiens, UniProt Q86WV6)
- Sequence (Q86WV6 whole entry, the tested form may be a part): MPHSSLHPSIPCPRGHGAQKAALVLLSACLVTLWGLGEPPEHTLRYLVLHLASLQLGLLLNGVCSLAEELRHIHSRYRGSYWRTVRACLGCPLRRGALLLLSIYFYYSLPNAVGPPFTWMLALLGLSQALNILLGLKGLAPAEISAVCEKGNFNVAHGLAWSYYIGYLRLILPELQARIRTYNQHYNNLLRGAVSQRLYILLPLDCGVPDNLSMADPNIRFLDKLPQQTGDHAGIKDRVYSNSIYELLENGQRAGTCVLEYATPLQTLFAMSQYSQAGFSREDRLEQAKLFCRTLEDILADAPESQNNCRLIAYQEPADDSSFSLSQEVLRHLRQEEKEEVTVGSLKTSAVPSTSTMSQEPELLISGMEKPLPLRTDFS
- Test description: Binding affinity to C-terminal domain human STING (139 to 379 residues) assessed as dissociation constant by DSF method
Reported endpoint: Kd (µM)
One number for each entry, in µM.

Asked: Need Kd, item COc1c(O)cc2oc3cc(O)c(CC=C(C)C)c(O)c3c(=O)c2c1CC=C(C)C
Given back: 157

* * *

- System under test: Stimulator of interferon genes protein (Homo sapiens, UniProt Q86WV6)
- Test description: Agonist activity at STING (unknown origin) in murine cells
- Format: cell-based, Murine cell line
Reported endpoint: pEC50
Give bare numbers, as −log10 of the molar value.

Asked: // query pEC50 value for entry Cc1ccc2c(=O)c3cc(Br)cc(CC(=O)O)c3oc2c1C
Given back: 3.82

* * *

- System under test: UniProtKB Q86WV6
- Test description: Agonist activity at STING in human HepG2 cell coexpressing ISG54luc assessed minimum effective concentrations that induce 5-fold luciferase activity incubated for 4 hrs by steady-glo luciferase assay
- Type: cell-based
- Reported conditions: filed as agonist
Reported endpoint: EC (µM)
Answers are plain numbers, in µM.

Can you give me EC for all of these, one by one?
1. O=C(Nc1ccccc1N1CCOCC1)c1cc2c(cc1Br)OCO2
2. Cc1cccc(NC(=O)c2cc(F)c(F)cc2Br)c1C
3. Cc1cccc(NC(=O)c2cc3c(cc2Br)OCO3)c1Br
4. O=C(Nc1cccc2ccccc12)c1ccc(Cl)cc1Cl

Given back:
1: 2.6; 2: 50; 3: 2.6; 4: 2.5

Asked: What value of EC has been reported for the following molecule? O=C(Nc1cccc2ccccc12)c1cc2c(cc1Br)OCO2
Given back: 2.2

* * *

- System under test: Stimulator of interferon genes protein (Mus musculus, UniProt Q3TBT3)
- Sequence (Q3TBT3 whole entry): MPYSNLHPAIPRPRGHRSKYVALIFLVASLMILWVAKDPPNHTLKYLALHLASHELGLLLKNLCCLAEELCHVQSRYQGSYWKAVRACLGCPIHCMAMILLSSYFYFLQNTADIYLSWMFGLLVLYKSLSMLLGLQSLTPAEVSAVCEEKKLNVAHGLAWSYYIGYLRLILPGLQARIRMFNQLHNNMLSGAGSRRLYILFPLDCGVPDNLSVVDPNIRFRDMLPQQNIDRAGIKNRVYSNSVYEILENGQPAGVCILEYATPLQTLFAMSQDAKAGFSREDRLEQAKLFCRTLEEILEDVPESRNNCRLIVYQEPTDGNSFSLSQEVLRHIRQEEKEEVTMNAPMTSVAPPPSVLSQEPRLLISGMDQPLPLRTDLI
- Test description: Agonist activity at mouse STING assessed as IFN-beta secretion
Reported endpoint: EC50 (nM)
Give bare numbers, in nM.

Asked: // lookup EC50 for CCn1nc(C)cc1C(=O)/N=c1\[nH]c2cc(C=O)cc(OCCCN3CCOCC3)c2n1CCCCn1c(NC(=O)c2cc(C)nn2CC)nc2cc(C(N)=O)cc(OC)c21
Given back: 186

* * *

- System under test: UniProt:Q86WV6
- Test description: Agonist activity at STING in human 293T hSTING-R232 Cells incubated for 48 hrs by QUANTI-blue assay
- Type: cell-based, 293-Dual hSTING-R232
Reported endpoint: pEC50
One number for each entry, as −log10 of the molar value.

COc1cc2c(c(C)c1C)N1C(=O)CC3=CC=CC(C2=O)C31 (stereo not drawn) : 3.87
COc1ccc2[nH]c3c(C)c(C)ccc3c(=O)c2c1 : 5.13

The record that follows has no pEC50 shown yet.
Asked: Name the recorded pEC50 for COc1cc2c(=O)c3cccc(CC(=O)O)c3[nH]c2c(C)c1C .
Given back: 3.81

* * *

- System under test: Stimulator of interferon genes protein (Homo sapiens, UniProt Q86WV6)
- Test description: Binding affinity to C-terminal domain human STING (139 to 379 residues) expressed in E. coli assessed as dissociation constant by isothermal titration calorimetry assay
Reported endpoint: Kd
Just so you know, I need the unit written after the number.

Asked: # query: Kd of entry Nc1nc2c(ncn2[C@H]2O[C@H]3COP(=O)(O)O[C@H]4[C@@H](O)[C@@H](n5cnc6c(=O)[nH]c(N)nc65)O[C@@H]4COP(=O)(O)O[C@H]3[C@H]2O)c(=O)[nH]1
Given back: 1210 nM
